- systemTested: AR T877A (Homo sapiens, UniProt P10275, T878A)
- Sequence (P10275 whole entry T878A): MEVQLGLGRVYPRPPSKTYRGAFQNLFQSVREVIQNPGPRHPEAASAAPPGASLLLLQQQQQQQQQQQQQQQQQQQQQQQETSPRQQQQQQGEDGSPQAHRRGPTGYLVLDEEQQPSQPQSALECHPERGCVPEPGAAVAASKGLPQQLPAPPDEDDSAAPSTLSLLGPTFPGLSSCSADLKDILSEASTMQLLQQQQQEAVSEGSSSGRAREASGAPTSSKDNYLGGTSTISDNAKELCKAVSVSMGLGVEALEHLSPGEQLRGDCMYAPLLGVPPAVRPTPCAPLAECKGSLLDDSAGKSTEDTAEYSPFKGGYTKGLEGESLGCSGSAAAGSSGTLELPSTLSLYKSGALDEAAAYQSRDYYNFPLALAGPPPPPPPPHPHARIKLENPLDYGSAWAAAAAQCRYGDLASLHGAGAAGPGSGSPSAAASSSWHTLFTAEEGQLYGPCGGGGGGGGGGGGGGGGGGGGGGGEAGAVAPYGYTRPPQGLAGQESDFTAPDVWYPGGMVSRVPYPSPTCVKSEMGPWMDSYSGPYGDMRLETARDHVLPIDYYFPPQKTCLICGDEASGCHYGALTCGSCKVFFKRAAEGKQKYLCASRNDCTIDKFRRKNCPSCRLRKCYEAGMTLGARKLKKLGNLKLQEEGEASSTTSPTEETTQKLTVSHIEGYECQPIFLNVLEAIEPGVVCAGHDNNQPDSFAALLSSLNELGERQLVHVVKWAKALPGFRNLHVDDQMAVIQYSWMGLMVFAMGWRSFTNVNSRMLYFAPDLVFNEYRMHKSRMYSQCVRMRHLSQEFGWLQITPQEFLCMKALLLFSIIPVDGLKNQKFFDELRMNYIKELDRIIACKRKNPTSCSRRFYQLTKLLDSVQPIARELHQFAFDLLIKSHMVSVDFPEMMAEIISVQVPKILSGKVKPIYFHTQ
- measurementDescription: Competitive binding assay, [3H]DHT, transfected COS-7 cells, AR T877A
- Parameters: expressed in transfected cells; host or cells: COS-7
- particulars: 14 nM [3H]-DHT, read-out: Binding affinity (Ki), AR T877A
endpoint: Ki (µM)
Kindly provide the numeric value in µM only, without the unit symbol.

CN(C)CCCOc1cccc(-c2ccccc2S(=O)(=O)CC(C)(O)C(=O)Nc2ccc(C#N)c(C(F)(F)F)c2)c1 (stereo not shown); 4.13
CN(C)CCCOc1cccc(Cc2ccccc2S(=O)(=O)CC(C)(O)C(=O)Nc2ccc(C#N)c(C(F)(F)F)c2)c1 (stereo not shown); 1.75
CN(C)CCCOc1ccccc1Cc1ccccc1S(=O)(=O)CC(C)(O)C(=O)Nc1ccc(C#N)c(C(F)(F)F)c1 (stereo not shown); 2.6

// switching to the query molecule
Q: I am curious: what Ki value has been reported for CN(C)CCCOc1ccc(-c2ccccc2S(=O)(=O)CC(C)(O)C(=O)Nc2ccc(C#N)c(C(F)(F)F)c2)cc1 (stereo not shown) ?
Result: 4.3
